# Tested on: DU145 (prostate)
# ASSAY_DETAILS: MTT cytotoxicity assay, 72 hours (Example 13)
# Assay type: cell-based, human
# EXPERIMENTAL_PARAMETERS: DU145, 1 nM
Non-standard residues stand in square brackets, D forms with d. Residues, ends and D or L forms follow the SMILES beside them. Aib = CC(C)(N)C(=O)O
QUANTITY: Percent Cytotoxicity
Phrase the answer as number then unit, nothing more needed.

Fill in the blank: the reported Percent Cytotoxicity of CC(C)C[C@H](NC(=O)[C@H](Cc1c[nH]cn1)NC(=O)CNC(=O)[C@@H](NC(=O)C(C)(C)NC(=O)[C@H](Cc1c[nH]c2ccccc12)NC(=O)[C@H](CCC(N)=O)NC(=O)[C@H](N)Cc1ccccc1)C(C)C)C(N)=O [SEQ ID: 4, D-Phe-Gln-Trp-Aib-Val-Gly-His-Leu-NH2] (H-[dF]QW[Aib]VGHL-NH2; N-terminus assumed) is ____.
22.8 ± 4.1%

----------
# System: PTC (colon)
# ASSAY_DETAILS: MTT cytotoxicity assay, 72 hours (Example 13)
# Assay type: cell-based, human
# EXPERIMENTAL_PARAMETERS: 10 nM
Non-standard residues stand in square brackets, D forms with d. Residues, ends and D or L forms follow the SMILES beside them. Aib = CC(C)(N)C(=O)O
Please respond with reported Percent Cytotoxicity for every item in the list.
Provide the reading as a plain figure in %.

For the record CC(C)C[C@H](NC(=O)[C@H](Cc1c[nH]cn1)NC(=O)CNC(=O)[C@@H](NC(=O)C(C)(C)NC(=O)[C@H](Cc1c[nH]c2ccccc12)NC(=O)[C@H](CCC(N)=O)NC(=O)[C@H](N)Cc1ccccc1)C(C)C)C(N)=O [SEQ ID: 4, D-Phe-Gln-Trp-Aib-Val-Gly-His-Leu-NH2] (H-[dF]QW[Aib]VGHL-NH2; N-terminus assumed) , what value of Percent Cytotoxicity is listed for PTC (colon)?
2.1

For the record CC[C@H](C)[C@H](NC(=O)[C@H](Cc1c[nH]cn1)NC(=O)CNC(=O)[C@@H](NC(=O)C(C)(C)NC(=O)[C@H](Cc1c[nH]c2ccccc12)NC(=O)[C@H](CCC(N)=O)NC(=O)[C@H](N)Cc1ccccc1)C(C)C)C(N)=O [SEQ ID: 6, D-Phe-Gln-Trp-Aib-Val-Gly-His-Ile-NH2] (H-[dF]QW[Aib]VGHI-NH2; N-terminus assumed) , what value of Percent Cytotoxicity is listed for PTC (colon)?
10.4

For the record CCCC(CCC)(NC(=O)[C@@H](NC(=O)[C@H](C)NC(=O)[C@@H](Cc1c[nH]c2ccccc12)NC(=O)[C@H](CCC(N)=O)NC(=O)[C@H](N)Cc1ccccc1)C(C)C)C(=O)N[C@@H](Cc1c[nH]cn1)C(=O)N[C@@H](CC(C)C)C(N)=O , what value of Percent Cytotoxicity is listed for PTC (colon)?
5.4

For the record CC[C@H](C)[C@H](NC(=O)[C@H](Cc1c[nH]cn1)NC(=O)C(C)(C)NC(=O)[C@@H](NC(=O)[C@H](C)NC(=O)[C@H](Cc1c[nH]c2ccccc12)NC(=O)[C@H](CCC(N)=O)NC(=O)[C@H](N)Cc1ccccc1)C(C)C)C(N)=O [SEQ ID: 7, D-Phe-Gln-Trp-Ala-Val-Aib-His-Ile-NH2] (H-[dF]QWAV[Aib]HI-NH2; N-terminus assumed) , what value of Percent Cytotoxicity is listed for PTC (colon)?
7.6

For the record CC(C)C[C@H](NC(=O)[C@H](Cc1c[nH]cn1)NC(=O)C(C)(C)NC(=O)[C@@H](NC(=O)[C@H](C)NC(=O)[C@@H](Cc1c[nH]c2ccccc12)NC(=O)[C@H](CCC(N)=O)NC(=O)[C@H](N)Cc1ccccc1)C(C)C)C(N)=O [SEQ ID: 5, D-Phe-Gln-D-Trp-Ala-Val-Aib-His-Leu-NH2] (H-[dF]Q[dW]AV[Aib]HL-NH2; N-terminus assumed) , what value of Percent Cytotoxicity is listed for PTC (colon)?
15.9
